Tested on: K4 kissing-loop RNA reporter;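 also: bound reporter read as fluorescence of individual clusters on recovered sequencing chips by microscopy, with normalized cluster intensities fitted with a binding model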
Experiment: apparent KD of K4 kissing-loop reporter; higher = weaker reporter binding
Details: Eterna round: R107; input ligand: theophylline 20 uM
Listing of entries alongside the reported apparent KD of K4 kissing-loop reporter.
Quick reminder: number only, in nM, skip the unit.

Below, each entry is followed by its recorded apparent KD of K4 kissing-loop reporter result.
construct.sequence	assay.metric	readout.units	meas.value
CGAAGAAAGGUAUGUGGGAUCUGCGCGUAACGAGGACCGGUACGGCCGCCACUCGACGUCGCAUACGGCCCAGUGAUGUUGGGUG [theeternabot_sameState_KL_Trp_A_14]	apparent KD of K4 kissing-loop reporter	nM	74.9
AAGCAGUCACUCGAAGCCAUCGAAGAUGGCCGAGGACCGGUACGGCCGCCACUCGGAGUGAUGUUCCGAAGACUGCAAAAUAAAA	apparent KD of K4 kissing-loop reporter	nM	363

**Query** What measured apparent KD of K4 kissing-loop reporter goes with ACGGGCGGCUGAAGGAGCGGGCGGGCCCGAGUGAUGUUCGGGUGGGCCGUGAGGCCCGGAGCCCAGGUAGGUCGCGGUUCCGUCC [#2 Same State - Arginine B Attempt #21 (HarryS)] ?
**Result** 171

**Query** Fill in the blank: the reported apparent KD of K4 kissing-loop reporter of UUUAUAAUGUCGGCCGCCACUGGAUUAAUAUUUGUAUAAUCUAGUUCUGAGUGAUGUUUAGAGUCCAGGACCGGGACAUUUGUUA [#10 K4 Tryptophan B Exclusion] is ____.
**Result** 788

**Query** Looking for the measured apparent KD of K4 kissing-loop reporter of CCGACUGCAGGAAGGAGCGGCGGUUGGAGUGAUGUUCCGGGUAGUGAUGUUACCAAGAUCCGCCAGGUAGGUCGCCUGUUGCUCG [Same State Arginine B GF11] , can you help?
**Result** 122

**Query** Param item = AAACGCUUGAAUAACAAGCGAAUAAAUUCGCGAGGACCGGUACGGCCGCCACUCGCUAACUGCGAGUGAUGUUCGAUAAUAAAAU [Mat - Mod of OpenEnded 3 - D14] ; retrieve measured apparent KD of K4 kissing-loop reporter.
**Result** 176

**Query** Look up apparent KD of K4 kissing-loop reporter: UAAGAGGACCACUGCAAGAGUCCUCGAAUACGAGGACCGGUACGGCCGCCACUCGAUAACUUGCAGUGAUGUUGCAAGUAAGAAU [(T)''-(K)'-(T)'-(T1)-(T2)-(K1)-(K2)_Design1]
**Result** 144

**Query** So what's the measured apparent KD of K4 kissing-loop reporter for this one? UUGAUAUGAUAGUAUCUUGUUUGAUAAAGGCAGGAUAUCGUAUAUUUGAGAAGGGCCAUUAUAUGCAGUGAUGUUGCAAAUAAGU [Exclusion FMN A Gf 25]
**Result** 61.4

====

System: MS2 coat protein
Test: apparent KD of MS2 coat protein; designed switch direction (-1 OFF switch, 1 ON switch): 1; higher = weaker reporter binding
Conditions: input ligand: FMN 200 uM
This section presents sequences with their documented apparent KD of MS2 coat protein values.
Quick note: give the figure in nM, leave out the unit.

Field: example entries. Status: answers known.
construct.sequence	system	apparent KD of MS2 coat protein (nM)
UCGAGCGUACUUGCAGACAUGAGGAUCACCCAUGUAAAUGGGAAGGAUAUGGUACCGUUUCGGUACCAGAAGGUCCUAAGUGUU [salish99_SSNG3_r04_303] (Eterna round: R96, puzzle: Same State NG 3)	MS2 coat protein	616
CCGAUAAUUGGAGGAUAUGGAGCCUUAUUGGCUCCAGAAGGCUAUAAACAUGAGGAUCACCCAUGUCGGCGGUCUAAUGACCGA [Eli NG1ss - 50] (Eterna round: R96, puzzle: Same State NG 1)	MS2 coat protein	28
GUGAAGAAUUAAGGAUAUCGAGUCAAGAUGUUAAACAUGAGGAUCACCCAUGUGGGUUGCGGUAUCGAGAAGGUAAAUUACAAG [salish99_SSNG2_r04_501] (Eterna round: R96, puzzle: Same State NG 2)	MS2 coat protein	26.7
UGAAGAUCCAUAGGAUAUCCGACACAUGAGGAUCACCCAUGUCAACCAAACGCAGCUUCGGCCGUGGAGAAGGAUGGAGCUGUG [Eternabot solution 3] (Eterna round: R96, puzzle: Same State NG 2)	MS2 coat protein	72.4

**Query** # query: apparent KD of MS2 coat protein of entry UGUUAGUAGACAGGAUAUUGAAUGUUAAGUAUUAACAUGAGGAUCACCCAUGUAUUAGAUUGGUACAAGAAGGGUCAAGUAAGU [JR_SSNG2_Sub011] (Eterna round: R96, puzzle: Same State NG 2)
**Result** 380

====

Test system: MS2 coat protein
Assay: apparent KD of MS2 coat protein, switch ON state; designed switch direction (-1 OFF switch, 1 ON switch): 1; higher = weaker reporter binding
Conditions: FMN input: 0 or 200 uM; Eterna round: R93 (includes R88 designs)
Outcome: t for apparent KD of MS2 coat protein of at least 50 nM; f for anything lower.

A selection of reference data follows.
construct.sequence	answer.label
AGAAAUAAAUGAGAGGAUAUCCAAAAGAAAACAUGAGGAUCACCCAUGUAAAAGAAAAUAAAAUGGGAGAAGGCUCAAAAUAAAG [80%, More Helter Skelter 2]	f
UAAGACGUGCAUCAGGAUAUGUUCCGAGGCACAUGAGGAUCACCCAUGUGGACGAAGCCUCGGGCACAGAAGGGAUCACUCAGAC [Laarma]	f
CAUAGACAUGAGGAUCACCCAUGUAGAAUUAUGGGAGGAUAUACAAAGACGAGAGUCAGAGUAGAAGGCCUAGGAA [salish99-ss1-160]	f
CGUAAACAUGAGGAUCACCCAUGUCAAUAUGAUCAAGGAUAUGGGUUCCGAAGUGGAACACCAGAAGGUGAAUAGU [Inrea]	t
ACUUCACAUGAGGAUCACCCAUGUCAGGCCGGACUAGGAUAUUAUCAUGCAGCGUAACCAUAAGAAGGAGUAGGAA [JR_SS001_Sub314]	t
AAUACACAUGGUCAGGAUAUCGCAGCUAGGACAUGAGGAUCACCCAUGUCGCACGUAACCGUAACCGAGAAGGGACAGGGUGAUC [JR_SS002_Sub410]	f
AAAUAAAGGACUGAGGAUAUACCACAUGAAACAUGAGGAUCACCCAUGUAGAAAUACAGAGGGUGGUAGAAGGCAGUCCACAAAC [Same State 2.5h ( so lets mod hyphema)]	f
GUGGUGCAGGUACAGGAUAUGUUGCUCGUAACAUGAGGAUCACCCAUGUACCUAUGAGAUUAAAUGCAGAAGGGUGCACACCACG [Edtiditele]	f

**Query** Kindly determine if apparent KD of MS2 coat protein recorded for GAAAAACAUGAGGAUCACCCAUGUAAGAUAAACACAGGAUAUGCGAAAAUAAAUAAAUAAGCAGAAGGGUGAAAAG [Mat - Same State 1 - Tesla mod - 78] is above or exactly 50 nM.
**Result** f

**Query** Identify whether the reported apparent KD of MS2 coat protein of the following sequence is 50 nM or greater: AAAAGACAUGAGGAUCACCCAUGUGAAAACGUGCGAGGAUAUGUAUGGAAACUAUACUGUACAGAAGGCGCGUGUC [SS1 - 82]
**Result** f

**Query** Answer whether apparent KD of MS2 coat protein of AAAAAACAUGAGGAUCACCCAUGUCAAAAGACGUGAGGAUAUGUACAGACUUCGGUCUGUACAGAAGGCACGUAAA [SS1 - 1039] is greater than or equal to 50 nM.
**Result** f

====

System: MS2 coat protein
Test: apparent KD of MS2 coat protein; designed switch direction (-1 OFF switch, 1 ON switch): 1; higher = weaker reporter binding
Conditions: input ligand: none
Binary classification by apparent KD of MS2 coat protein, with 200 nM as an inclusive lower bound for Fulfilled; all other cases are Not fulfilled.

Example results:
construct.sequence	answer.label
AAACUAGGCGGUCCAACAUGAGGAUCACCCAUGUAAAAUUCAUAGGAUAUGCCUAUAGAAACAAGGCAGAAGGGUGAGACCGCA [Atsoorle] (Eterna round: R96, puzzle: Same State NG 3)	Not fulfilled
AUUAUAAAUGCAGGAUAUGAUUAACAUGAGGAUCACCCAUGUGGUGUUGUGAGUAAGGAGAGUGAUCAGAAGGGCAUUUUUUUU [JMF's solution 24] (Eterna round: R96, puzzle: Same State NG 2)	Fulfilled
GCUCGGAUGAUGACCCACAUGAGGAUCACCCAUGUGCGUGGGCAGGAUAUCUAGAUUAAGGAUGUAGAGAAGGGUCUACCGAGC [SameState NG3 #31] (Eterna round: R96, puzzle: Same State NG 3)	Fulfilled
GGAAUAUGAUGUUACAUGAGGAUCACCCAUGUAGUAAUAACUAAGGAUAUUUGAAAGGGAGGAGAAGAGAAGGUAGGAUCAUAA [AK SSNG3-V2-11] (Eterna round: R96, puzzle: Same State NG 3)	Not fulfilled

// next entry
**Query** Confirm if apparent KD of MS2 coat protein reported for the sequence AUCAAAAGAGGAGGAUAUGCAGAGGAUCACCCUGUAGAAGGCCACAGAGGAGGAUAUGCAGAGGAUCACCCUGUAGAAGGCCUC [pwkr ssNG DX.16] (Eterna round: R96, puzzle: Same State NG 1) is 200 nM or above.
**Result** Not fulfilled

Hey, just so you know, these numbers are from the supplement of paper PMC9170038.
